Protocol Description: Half-life in cynomolgus monkey at 2 mg/kg, iv
Format: ADME, organism-based, Macaca fascicularis
Condition: in vivo
Value Kind: half-life (h)
Just the number in h, nothing appended.

Query: Answer with the recorded half-life for the molecule listed here: Cc1ccc2nc(N3CCS(=O)(=O)c4ccccc4C3)nc(NCC3(N)COC3)c2c1 [ZIRESOVIR]
Response: 1

====

Catalogue of compounds with associated selectivity ratio at 120 h
Protocol Description: Therapeutic index, ratio of CC50 of human Hep2 cells to EC50 for antiviral activity against human respiratory syncytial virus long strain infected in human Hep2 cells after 5 days by CCK-8 assay
Format: toxicity, cell-based
Condition: HEp-2 cells, read-out: Ratio CC50/EC50
Give the value as a plain number.

See these solved cases before continuing.
>  <Compound String>
Cc1ccc2nc(N3CCS(=O)(=O)c4ccc(F)cc4C3)cc(NCC3(N)COC3)c2c1

>  <Measured Value>
1290

$$$$
>  <Compound String>
NC1(CNc2cc(N3CCS(=O)(=O)c4ccccc4C3)nc3ccncc23)COC1

>  <Measured Value>
8250

$$$$
>  <Compound String>
Cc1ccc2nc(N3CCS(=O)(=O)c4cc(Cl)ccc4C3)cc(NCC3(N)COC3)c2c1

>  <Measured Value>
560

$$$$

With those in mind, consider the next compound.
Query: Answer with the recorded selectivity ratio at 120 h for the compound listed here: Cc1ccc2nc(N3CCS(=O)(=O)c4cc(F)ccc4C3)cc(NCC3(N)COC3)c2c1
Response: 7900
